Data credit: patent US20230002367A1

Some compounds, each annotated with its measured Emax.
# target entity: SMARCA2 (Homo sapiens)
# Construct: endogenous in cells
# procedure summary: SMARCA2 HiBiT degradation assay (cellular)
# Format: cell-based
# condition description: A549, Emax = amount of residual protein remaining in the cell following compound treatment
Number only, in %; omit the unit.

Field: example entries. Status: answers known.
| compound | target entity | Emax (%) |
| --- | --- | --- |
| Cc1ncsc1-c1ccc(CNC(=O)[C@@H]2C[C@@H](O)CN2C(=O)[C@@H](NC(=O)CCCCCCCCC(=O)N2CCN(c3cc(-c4ccccc4O)nnc3N)CC2C)C(C)(C)C)cc1 (some centres unmarked) [Example 4] | SMARCA2 (Homo sapiens) | 36 |
| Cc1ncsc1-c1ccc([C@H](C)NC(=O)[C@@H]2C[C@@H](O)CN2C(=O)[C@@H](NC(=O)CCCCCCCCCCCCC(=O)N2CCN(CCOc3cccc(N4CCCC(Oc5cc(-c6ccccc6O)nnc5N)C4)c3)CC2)C(C)(C)C)cc1 (mixture of isomers) [Example 81] | SMARCA2 (Homo sapiens) | 34 |
| Cc1ncsc1-c1ccc(CNC(=O)[C@@H]2C[C@@H](O)CN2C(=O)[C@@H](NC(=O)CCCCCCCCC(=O)N(C)CCNC(=O)C2CN(c3cc(-c4ccccc4O)nnc3N)CCN2c2ccccc2)C(C)(C)C)cc1 (mixture of isomers) [Example 98] | SMARCA2 (Homo sapiens) | 28 |
| Cc1ncsc1-c1ccc([C@H](C)NC(=O)[C@@H]2C[C@@H](O)CN2C(=O)[C@@H](NC(=O)CCCCCCCCC(=O)N2CCN(Cc3cccc(CCOc4cc(-c5ccccc5O)nnc4N)c3)CC2)C(C)(C)C)cc1 [Example 106] | SMARCA2 (Homo sapiens) | 39 |

API: the following record is the query input.
Input line: What value of Emax has been reported for the following compound? Cc1ncsc1-c1ccc([C@H](C)NC(=O)[C@@H]2C[C@@H](O)CN2C(=O)[C@@H](NC(=O)CCCCCC(=O)N2CCN(c3cccc(OC4CN(c5cc(-c6ccccc6O)nnc5N)C4)c3)CC2)C(C)(C)C)cc1 [Example 94]
Output line: 43

---

# target entity: SMARCA2 (Homo sapiens, UniProt P51531)
# Construct: endogenous in cells
# Sequence (P51531 whole entry): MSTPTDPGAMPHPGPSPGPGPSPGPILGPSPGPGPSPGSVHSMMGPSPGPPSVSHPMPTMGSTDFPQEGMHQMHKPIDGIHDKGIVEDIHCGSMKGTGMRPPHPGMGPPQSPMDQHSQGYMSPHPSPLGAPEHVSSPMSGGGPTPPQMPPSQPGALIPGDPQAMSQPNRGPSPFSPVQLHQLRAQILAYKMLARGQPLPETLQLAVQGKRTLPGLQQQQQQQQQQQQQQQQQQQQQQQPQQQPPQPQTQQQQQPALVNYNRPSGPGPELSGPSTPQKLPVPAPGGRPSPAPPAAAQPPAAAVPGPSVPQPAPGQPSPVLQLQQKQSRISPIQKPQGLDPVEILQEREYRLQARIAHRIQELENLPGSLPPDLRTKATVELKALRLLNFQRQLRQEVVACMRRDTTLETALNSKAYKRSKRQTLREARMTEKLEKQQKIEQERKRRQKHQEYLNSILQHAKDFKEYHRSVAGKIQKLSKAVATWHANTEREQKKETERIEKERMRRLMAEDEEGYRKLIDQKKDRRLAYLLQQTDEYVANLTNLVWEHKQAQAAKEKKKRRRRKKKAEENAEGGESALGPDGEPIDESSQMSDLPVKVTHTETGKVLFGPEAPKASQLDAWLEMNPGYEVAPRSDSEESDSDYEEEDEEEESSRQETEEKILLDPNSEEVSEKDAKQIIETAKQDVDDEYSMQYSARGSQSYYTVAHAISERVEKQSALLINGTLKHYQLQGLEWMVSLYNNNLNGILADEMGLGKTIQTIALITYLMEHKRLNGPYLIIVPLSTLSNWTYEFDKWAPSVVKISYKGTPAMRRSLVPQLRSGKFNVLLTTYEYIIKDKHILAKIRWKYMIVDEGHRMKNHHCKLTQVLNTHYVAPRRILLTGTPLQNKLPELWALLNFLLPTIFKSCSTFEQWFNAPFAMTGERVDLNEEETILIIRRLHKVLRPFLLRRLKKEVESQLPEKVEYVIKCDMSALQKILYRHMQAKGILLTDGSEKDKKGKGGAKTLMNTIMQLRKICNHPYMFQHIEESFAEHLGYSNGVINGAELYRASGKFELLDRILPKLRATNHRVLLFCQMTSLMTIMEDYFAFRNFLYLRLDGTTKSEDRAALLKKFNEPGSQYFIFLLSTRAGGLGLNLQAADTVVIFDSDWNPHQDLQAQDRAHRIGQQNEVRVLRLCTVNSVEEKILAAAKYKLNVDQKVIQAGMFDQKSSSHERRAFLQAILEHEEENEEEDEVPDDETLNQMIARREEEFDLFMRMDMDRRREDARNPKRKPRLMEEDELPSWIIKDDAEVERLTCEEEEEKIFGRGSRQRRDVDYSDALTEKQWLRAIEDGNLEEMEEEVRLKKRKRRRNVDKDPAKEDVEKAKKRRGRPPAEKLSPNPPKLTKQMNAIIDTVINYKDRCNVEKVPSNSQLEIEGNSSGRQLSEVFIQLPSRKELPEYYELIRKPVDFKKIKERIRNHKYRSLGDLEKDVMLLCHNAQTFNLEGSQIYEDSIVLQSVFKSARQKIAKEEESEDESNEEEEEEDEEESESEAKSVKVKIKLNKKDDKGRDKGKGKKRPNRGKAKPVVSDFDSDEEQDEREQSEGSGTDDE
# procedure summary: SMARCA2 HiBiT degradation assay (cellular)
# Type: cell-based
# condition description: A549, Emax = amount of residual protein remaining in the cell following compound treatment
observed property: Emax (%)
Enter your answer as a number in %; do not include the unit.

Sample records with Emax:
| compound | Emax [%] |
| --- | --- |
| Cc1ncsc1-c1ccc(CNC(=O)[C@@H]2C[C@@H](O)CN2C(=O)[C@@H](NC(=O)CCCCCCCCC(=O)N2CCN(Cc3cccc(CN4C5CCC4CN(c4cc(-c6ccccc6O)nnc4N)C5)c3)CC2)C(C)(C)C)cc1 [Example 29] | 30 |
| Cc1ncsc1-c1ccc([C@H](C)NC(=O)[C@@H]2C[C@@H](O)CN2C(=O)[C@@H](NC(=O)CCCCCCCCCCCCC(=O)N(C)CC(COc2cc(-c3ccccc3O)nnc2N)c2ccccc2)C(C)(C)C)cc1 (mixture of isomers) [Example 23] | 38 |
| Cc1ncsc1-c1ccc([C@H](C)NC(=O)[C@@H]2C[C@@H](O)CN2C(=O)[C@@H](NC(=O)CCCCCC(=O)N2CCN(Cc3cccc(CCOc4cc(-c5ccccc5O)nnc4N)c3)CC2)C(C)(C)C)cc1 [Example 105] | 40 |
| Cc1ncsc1-c1ccc([C@H](C)NC(=O)[C@@H]2C[C@@H](O)CN2C(=O)[C@@H](NC(=O)CCCCCCCCC(=O)N(C)CC(COc2cc(-c3ccccc3O)nnc2N)c2ccccc2)C(C)(C)C)cc1 (mixture of isomers) [Example 25] | 19 |
| Cc1ncsc1-c1ccc(CNC(=O)[C@@H]2C[C@H](O)CN2C(=O)[C@@H](NC(=O)CCCCCCCC(=O)N2CCC(Cc3cccc(N4C5CCC4CN(c4cc(-c6ccccc6O)nnc4N)C5)c3)CC2)C(C)(C)C)cc1 [Example 13] | 28 |
| Cc1ncsc1-c1ccc(CNC(=O)[C@@H]2C[C@@H](O)CN2C(=O)[C@@H](NC(=O)CCCCCCCCC(=O)N2CCN(CCOc3cccc(N4C5CCC4CN(c4cc(-c6ccccc6O)nnc4N)C5)c3)CC2)C(C)(C)C)cc1 [Example 10] | 19 |
| Cc1ncsc1-c1ccc([C@H](C)NC(=O)[C@@H]2C[C@@H](O)CN2C(=O)[C@@H](NC(=O)CCCCCCCCCCCCC(=O)N2CCN(c3ccc(N4CCCC(Oc5cc(-c6ccccc6O)nnc5N)C4)cc3)CC2)C(C)(C)C)cc1 (mixture of isomers) [Example 76] | 31 |
| Cc1ncsc1-c1ccc([C@H](C)NC(=O)[C@@H]2C[C@@H](O)CN2C(=O)[C@@H](NC(=O)CCCCCC(=O)N2CCN(Cc3cccc(OC4CN(c5cc(-c6ccccc6O)nnc5N)C4)c3)CC2)C(C)(C)C)cc1 [Example 83] | 44 |

Could you now consider this next compound?
Input line: Entry Cc1ncsc1-c1ccc([C@H](C)NC(=O)[C@@H]2C[C@@H](O)CN2C(=O)[C@@H](NC(=O)CCCCCCCCCCC(=O)N2CCN(c3ccc(N4CCCC(Oc5cc(-c6ccccc6O)nnc5N)C4)cc3)CC2)C(C)(C)C)cc1 (mixture of isomers) [Example 48] : reported Emax = ?
Output line: 22
